The following compounds are listed with their measured pEC50 values.
Tested on: Plasmodium falciparum (3D7)
Test: In-vitro potency against P. falciparum (3D7 strain), SYBR Green growth inhibition
Format: cell-based
Settings: P. falciparum 3D7, asexual intraerythrocytic stage, SYBR Green fluorescence
Source text: […]
pEC50: −log10 of the molar value.
property: pEC50

>  <compound>
CC(C)Oc1ccc(C2C(C(=O)Nc3ccc(F)c(C#N)c3)c3ccccc3C(=O)N2CC(F)(F)F)cn1 (racemic) [(2)]

>  <measured.result>
7.10

$$$$
>  <compound>
N#Cc1cc(NC(=O)[C@H]2c3ccccc3C(=O)N(CC(F)(F)F)[C@@H]2c2cccnc2)ccc1F [(+) SJ-733, reference compound]

>  <measured.result>
6.84

$$$$
>  <compound>
N#Cc1cc(NC(=O)[C@H]2c3ccccc3C(=O)N(CC(F)(F)F)[C@@H]2c2ccc(OC3CC3)nc2)ccc1F (single isomer, unassigned) [(1a)]

>  <measured.result>
7.72

$$$$

----------
Experiment: Pharmacokinetic profile in dog (IV)
Details: in vivo, IV at 1 mg/kg, read-out: Cl (dog)

>  <compound>
N#Cc1cc(NC(=O)[C@H]2c3ccccc3C(=O)N(CC(F)(F)F)[C@@H]2c2ccc(OC3CC3)nc2)ccc1F (single isomer, unassigned) [(1a)]

>  <value.units>
mL/min/kg

>  <clearance>
0.26

$$$$

----------
Experiment: PK parameters in rat (IV and PO)
Format: in vivo
Details: Sprague Dawley, plasma, IV arm, 1 mg/kg, read-out: PK parameters (rat): Cl
property: clearance (mL/min/kg)

>  <compound>
N#Cc1cc(NC(=O)[C@H]2c3ccccc3C(=O)N(CC(F)(F)F)[C@@H]2c2ccc(OC3CC3)nc2)ccc1F (single isomer, unassigned)

>  <measured.result>
1

$$$$
>  <compound>
N#Cc1cc(NC(=O)[C@H]2c3ccccc3C(=O)N(CC(F)(F)F)[C@@H]2c2cccnc2)ccc1F [(+) SJ-733, reference compound]

>  <measured.result>
13.3

$$$$
>  <compound>
N#Cc1cc(NC(=O)[C@H]2c3ccccc3C(=O)N(CC(F)(F)F)[C@@H]2c2ccc(OC(F)F)nc2)ccc1F

>  <measured.result>
1.5

$$$$
>  <compound>
N#Cc1cc(NC(=O)[C@H]2c3ccccc3C(=O)N(CC(F)(F)F)[C@@H]2c2ccc(OCC(F)(F)F)nc2)ccc1F

>  <measured.result>
0.5

$$$$
>  <compound>
N#Cc1cc(NC(=O)[C@H]2c3ccccc3C(=O)N(CC(F)(F)F)[C@@H]2c2ccc(C(F)(F)F)nc2)ccc1F

>  <measured.result>
0.667

$$$$
>  <compound>
N#Cc1cc(NC(=O)[C@H]2c3ccccc3C(=O)N(CC(F)(F)F)[C@@H]2c2cnc(C(F)(F)F)nc2)ccc1F

>  <measured.result>
1.33

$$$$

----------
The following molecules are listed with their measured hepatocyte CLint at 3 μM values.
Experiment: Hepatocyte intrinsic clearance, cryopreserved human hepatocytes
Assay type: in vitro ADME
Settings: cryopreserved human hepatocytes in suspension (pooled), 60 min

>  <molecule>
N#Cc1cc(NC(=O)[C@H]2c3ccccc3C(=O)N(CC(F)(F)F)[C@@H]2c2ccc(C(F)(F)F)nc2)ccc1F

>  <hepatocyte CLint at 3 μM>
< 10 µL/min/1e6 cells

$$$$
>  <molecule>
N#Cc1cc(NC(=O)[C@H]2c3ccccc3C(=O)N(CC(F)(F)F)[C@@H]2c2ccc(OC(F)F)nc2)ccc1F

>  <hepatocyte CLint at 3 μM>
< 10 µL/min/1e6 cells

$$$$
>  <molecule>
N#Cc1ccc([C@@H]2[C@@H](C(=O)Nc3ccc(F)c(C#N)c3)c3ccccc3C(=O)N2CC(F)(F)F)cn1

>  <hepatocyte CLint at 3 μM>
< 3 µL/min/1e6 cells

$$$$
>  <molecule>
N#Cc1cc(NC(=O)[C@H]2c3ccccc3C(=O)N(CC(F)(F)F)[C@@H]2c2ccc(C(F)F)nc2)ccc1F

>  <hepatocyte CLint at 3 μM>
4 µL/min/1e6 cells

$$$$
>  <molecule>
N#Cc1cc(NC(=O)[C@H]2c3ccccc3C(=O)N(CC(F)(F)F)[C@@H]2c2cnc(C(F)(F)F)nc2)ccc1F

>  <hepatocyte CLint at 3 μM>
< 3 µL/min/1e6 cells

$$$$
>  <molecule>
N#Cc1cc(NC(=O)[C@H]2c3ccccc3C(=O)N(CC(F)(F)F)[C@@H]2c2cccnc2)ccc1F [(+) SJ-733, reference compound]

>  <hepatocyte CLint at 3 μM>
11.4 µL/min/1e6 cells

$$$$
>  <molecule>
N#Cc1cc(NC(=O)[C@H]2c3ccccc3C(=O)N(CC(F)(F)F)[C@@H]2c2ccc(OC3CC3)nc2)ccc1F (single isomer, unassigned)

>  <hepatocyte CLint at 3 μM>
< 3 µL/min/1e6 cells

$$$$
>  <molecule>
N#Cc1cc(NC(=O)[C@H]2c3ccccc3C(=O)N(CC(F)(F)F)[C@@H]2c2ccc(OCC(F)(F)F)nc2)ccc1F

>  <hepatocyte CLint at 3 μM>
< 3 µL/min/1e6 cells

$$$$

----------
The following compounds are listed with their measured pEC50 values.
Tested on: Plasmodium falciparum (3D7)
Assay: In-vitro potency against P. falciparum (3D7 strain), SYBR Green growth inhibition
Type: cell-based
Conditions: P. falciparum 3D7, asexual intraerythrocytic stage, SYBR Green fluorescence
pEC50: −log10 of the molar value.

>  <structure.as.smiles>
N#Cc1cc(NC(=O)[C@H]2c3ccccc3C(=O)N(CC(F)(F)F)[C@@H]2c2cnc(C(F)(F)F)nc2)ccc1F

>  <pEC50>
6.99

$$$$
>  <structure.as.smiles>
N#Cc1cc(NC(=O)[C@H]2c3ccccc3C(=O)N(CC(F)(F)F)[C@@H]2c2ccc(C(F)F)nc2)ccc1F

>  <pEC50>
7.23

$$$$
>  <structure.as.smiles>
N#Cc1cc(NC(=O)[C@H]2c3ccccc3C(=O)N(CC(F)(F)F)[C@@H]2c2ccc(C(F)(F)F)nc2)ccc1F

>  <pEC50>
7.15

$$$$
>  <structure.as.smiles>
N#Cc1cc(NC(=O)[C@H]2c3ccccc3C(=O)N(CC(F)(F)F)[C@@H]2c2ccc(OC(F)F)nc2)ccc1F

>  <pEC50>
7.17

$$$$
>  <structure.as.smiles>
N#Cc1cc(NC(=O)[C@H]2c3ccccc3C(=O)N(CC(F)(F)F)[C@@H]2c2ccc(OCC(F)(F)F)nc2)ccc1F

>  <pEC50>
7.28

$$$$
>  <structure.as.smiles>
N#Cc1ccc([C@@H]2[C@@H](C(=O)Nc3ccc(F)c(C#N)c3)c3ccccc3C(=O)N2CC(F)(F)F)cn1

>  <pEC50>
7.17

$$$$
>  <structure.as.smiles>
CC(=O)Nc1ccc([C@@H]2[C@@H](C(=O)Nc3ccc(F)c(C#N)c3)c3ccccc3C(=O)N2CC(F)(F)F)cn1

>  <pEC50>
7.40

$$$$

----------
Experiment: PK parameters in mouse (IV and PO)
Assay type: in vivo
Conditions: male, Swiss Albino, plasma, IV arm, 10 mg/kg, read-out: PK parameters (mouse): t1/2

>  <compound>
N#Cc1cc(NC(=O)[C@H]2c3ccccc3C(=O)N(CC(F)(F)F)[C@@H]2c2ccc(OC3CC3)nc2)ccc1F (single isomer, unassigned) [(1a)]

>  <half-life>
17 h

$$$$
>  <compound>
N#Cc1cc(NC(=O)[C@H]2c3ccccc3C(=O)N(CC(F)(F)F)[C@@H]2c2ccc(C(F)F)nc2)ccc1F [(8a)]

>  <half-life>
56 h

$$$$
>  <compound>
N#Cc1cc(NC(=O)[C@H]2c3ccccc3C(=O)N(CC(F)(F)F)[C@@H]2c2cccnc2)ccc1F [(+) SJ-733, reference compound]

>  <half-life>
1.1 h

$$$$
>  <compound>
N#Cc1cc(NC(=O)[C@H]2c3ccccc3C(=O)N(CC(F)(F)F)[C@@H]2c2ccc(OCC(F)(F)F)nc2)ccc1F [(4a)]

>  <half-life>
41 h

$$$$
>  <compound>
N#Cc1cc(NC(=O)[C@H]2c3ccccc3C(=O)N(CC(F)(F)F)[C@@H]2c2ccc(OC(F)F)nc2)ccc1F [(7a)]

>  <half-life>
18 h

$$$$
>  <compound>
N#Cc1cc(NC(=O)[C@H]2c3ccccc3C(=O)N(CC(F)(F)F)[C@@H]2c2cnc(C(F)(F)F)nc2)ccc1F [(9a)]

>  <half-life>
14 h

$$$$
>  <compound>
N#Cc1cc(NC(=O)[C@H]2c3ccccc3C(=O)N(CC(F)(F)F)[C@@H]2c2ccc(C(F)(F)F)nc2)ccc1F [(3a)]

>  <half-life>
11 h

$$$$

----------
Assay: Microsomal intrinsic clearance, rat liver microsomes
Assay type: in vitro ADME
Details: rat liver microsomes (pooled), pH 7.4, 45 min, NADPH
The following compounds are listed with their measured microsomal CLint at 1 μM values.

>  <compound>
N#Cc1cc(NC(=O)[C@H]2c3ccccc3C(=O)N(CC(F)(F)F)[C@@H]2c2cnc(C(F)(F)F)nc2)ccc1F

>  <microsomal CLint at 1 μM>
< 10 µL/min/mg

$$$$
>  <compound>
N#Cc1cc(NC(=O)[C@H]2c3ccccc3C(=O)N(CC(F)(F)F)[C@@H]2c2ccc(OC3CC3)nc2)ccc1F (single isomer, unassigned)

>  <microsomal CLint at 1 μM>
< 10 µL/min/mg

$$$$
>  <compound>
N#Cc1cc(NC(=O)[C@H]2c3ccccc3C(=O)N(CC(F)(F)F)[C@@H]2c2cccnc2)ccc1F [(+) SJ-733, reference compound]

>  <microsomal CLint at 1 μM>
< 6 µL/min/mg

$$$$
>  <compound>
N#Cc1cc(NC(=O)[C@H]2c3ccccc3C(=O)N(CC(F)(F)F)[C@@H]2c2ccc(C(F)(F)F)nc2)ccc1F

>  <microsomal CLint at 1 μM>
< 10 µL/min/mg

$$$$
>  <compound>
N#Cc1cc(NC(=O)[C@H]2c3ccccc3C(=O)N(CC(F)(F)F)[C@@H]2c2ccc(OCC(F)(F)F)nc2)ccc1F

>  <microsomal CLint at 1 μM>
< 10 µL/min/mg

$$$$
